Give intrinsic clearance, rat liver microsomes for every item shown.
Respond numerically; units are mL/min/kg and should not be typed.

// query Field request: intrinsic clearance, rat liver microsomes | item: `Cc1c(CN2CCC(Nc3ncnc4sc(CC(F)(F)F)cc34)CC2)ccc2c1cc(C#N)n2Cc1cn[nH]c1`
// result 105

// query Given the entry `CSc1ccc(C)c(C(=O)NCCN2CCC(C)CC2)c1` , report its measured intrinsic clearance, rat liver microsomes.
// result 1750

// query Recorded intrinsic clearance, rat liver microsomes of `Cc1oc2ccccc2c1CNc1nnc(-c2ccncc2)o1` , please.
// result 141

// query Given `Cc1nnc2ncc(-c3cccc4ccnn34)cn12` , state its recorded intrinsic clearance, rat liver microsomes.
// result 39.7

// query For the molecule `CCCCCCCCc1ccc(CCC(N)(CO)CO)cc1` , what intrinsic clearance, rat liver microsomes is on record?
// result 17

// query # query: intrinsic clearance, rat liver microsomes of entry `O=C(Nc1nccs1)C1CCN(C(=O)CN2CCc3ccccc32)CC1`
// result 394

// query Using the record for `CCN(C(=O)c1cccc(-n2cccn2)c1)c1ccc(C#N)c(Cl)c1` , report its intrinsic clearance, rat liver microsomes.
// result 2060

// query Which value of intrinsic clearance, rat liver microsomes has been reported for `COc1ccc2nc(C)nc(NCc3ncc(C)o3)c2c1` in the records?
// result 296

// query Using the record for `Cn1cnnc1-c1cccc(NS(=O)(=O)c2cc3c(cc2Cl)OCCO3)c1` , report its intrinsic clearance, rat liver microsomes.
// result 308

// query Could you share which intrinsic clearance, rat liver microsomes value was measured for `c1ccc(C2(c3ccccc3)CCCN(Cc3nnc(C4CC4)o3)C2)cc1` ?
// result 1200

// query Requested read-out: intrinsic clearance, rat liver microsomes. Entry: `N#CC1(NC(=O)c2ccc3c(c2)OCO3)CCCC1`
// result 64.9

FYI, the data here is from the Biogen ADME set (Fang et al. 2023).
